Tested on: liver damage induced by carbon tetrachloride
Experiment Summary: Protective (Controlling) effect on liver damage induced by carbon tetrachloride
Format: in vivo, mice (dd strain)
Run Parameters: 250 mg/kg p.o., CCl4 0.05 ml/kg after 6 h, 24 h; CCl4 alone >2,100
Reported Property: p-GPT (Karmen units)
Report as a plain number; the unit Karmen units is understood.

# annotated cases, reported p-GPT shown
INSERT INTO measurements (compound, observed_result) VALUES
  ('CCCOC(=O)C(C(=O)OCCC)=C1SC(OC(=O)C(C)(C)C)C(OC(=O)C(C)(C)C)S1 (stereo not drawn)', 223.2),
  ('C=CCOC(=O)C(C(=O)OCC=C)=C1SC(O)C(O)S1 (stereo not drawn)', 63),
  ('CCOC(=O)C(C(=O)CC)=C1SC(O)C(O)S1 (stereo not drawn)', 23);

Recorded p-GPT for COC(=O)C(C(=O)OC)=C1SC(O)C(O)S1 (stereo not drawn) , please?
23

Recorded p-GPT for C=CCOC(=O)C(C(=O)OCC=C)=C1SC2OC(=S)OC2S1 (stereo not drawn) , please?
20.2

Recorded p-GPT for O=C(OCc1ccccc1)C(C(=O)OCc1ccccc1)=C1SC(O)C(O)S1 (stereo not drawn) , please?
33
